Data provenance is paper PMC2756588.

Please go through the items and note down their SPOT intensity.
- assayed-target: T1, Abp1, P15891
- T1 sequence (P15891 535-592, looked up): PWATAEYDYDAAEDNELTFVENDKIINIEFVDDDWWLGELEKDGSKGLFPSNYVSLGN
- test-name: SPOT array
- run-conditions: median of control spots 935

Please look up its SPOT intensity: ATKSASPTLPTRRSR
182

Record request: SPOT intensity value, item SPLGAPPPPPHKDHL
0

What value of measured SPOT intensity is listed for KRRTSLFPWLHKPGI ?
25

Suppose we examine the binder QQNRPLPQLPNRNNR ; what SPOT intensity value has been reported?
228

Value lookup for SPOT intensity; key = RKRRTHLRLPLIRSN
75

Value lookup for SPOT intensity; key = NGRRRPKFRVQLSGN
209

Quick one: SPOT intensity of RAPPPVPKKPSSRIA ?
673
